target: ENPP-1, MDA-MB-231 cells (Homo sapiens); experiment: cell-based; conditions: MDA-MB-231, read-out: % Inhibition (at 20 μM)
Result type: inhibition at 20 µM (%)

> print(dat)
                                   compound          result.type  reported.result
1  COc1ccc2c(ncc3ncn(Cc4ccc(S(N)(=O)=O)cc4)c32)n1 [Compound 39]  inhibition at 20 µM               82
2  COc1ccc2c(ncc3nc(CC(N)=O)n(Cc4ccc(S(N)(=O)=O)c(F)c4)c32)n1 [Compound 84]  inhibition at 20 µM               76
3  COc1ccc2c(ncc3[nH]c(=O)n(Cc4c(F)cc(C(=O)NO)cc4F)c32)n1 [Compound 110]  inhibition at 20 µM               86
4  COc1cc2ncc3[nH]c(=O)n(Cc4ccc(S(N)(=O)=O)cc4)c3c2cc1OC [Compound 1]  inhibition at 20 µM               50
5  COc1ccc2c(ncc3nc(C4CN(S(C)(=O)=O)C4)n(Cc4ccc(S(N)(=O)=O)c(F)c4)c32)n1 [Compound 86]  inhibition at 20 µM               80
6  COCc1nc2cnc3nc(OC)ccc3c2n1Cc1ccc(S(N)(=O)=O)c(F)c1 [Compound 79]  inhibition at 20 µM               74
7  COc1ccc2c(ncc3[nH]c(=O)n(Cc4ccc(S(N)(=O)=O)cc4F)c32)n1 [Compound 102]  inhibition at 20 µM               86
8  COc1ccc2c(ncc3ccn(Cc4ccc(S(N)(=O)=O)cc4)c32)n1 [Compound 117]  inhibition at 20 µM               16

====

molecular target: ENPP-1, MDA-MB-231 cells (Homo sapiens); experiment: cell-based; conditions: MDA-MB-231, read-out: % Inhibition (at 20 μM)
inhibition at 20 µM values, listed per item
Result type: inhibition at 20 µM (%)

> print(dat)
                             chemical.smiles                          target.of.assay          result.type  reported.result
 1  COc1ccc2c(ncc3[nH]c(=O)n(Cc4ccc(S(N)(=O)=O)nc4)c32)n1  ENPP-1, MDA-MB-231 cells (Homo sapiens)  inhibition at 20 µM               57
 2  COc1ccc2c(n1)nc(C)c1nnn(Cc3ccc(S(N)(=O)=O)cn3)c12  ENPP-1, MDA-MB-231 cells (Homo sapiens)  inhibition at 20 µM               80
 3  COc1ccc2c(ncc3nc(CS(C)(=O)=O)n(Cc4ccc(S(N)(=O)=O)c(F)c4)c32)n1  ENPP-1, MDA-MB-231 cells (Homo sapiens)  inhibition at 20 µM               63
 4  COc1ccc2c(ncc3[nH]c(=O)n(Cc4c(F)cc(C(N)=O)cc4F)c32)n1  ENPP-1, MDA-MB-231 cells (Homo sapiens)  inhibition at 20 µM               11
 5  COc1ccc2c(ncc3ncn(Cc4ccc(S(N)(=O)=O)c(OC)c4)c32)n1  ENPP-1, MDA-MB-231 cells (Homo sapiens)  inhibition at 20 µM               68
 6  COc1ccc2c(ncc3nc(C)n(Cc4ccc(S(N)(=O)=O)cn4)c32)n1  ENPP-1, MDA-MB-231 cells (Homo sapiens)  inhibition at 20 µM               81
 7  COc1ccc2c(ncc3nc(CN4CCOCC4)n(Cc4ccc(S(N)(=O)=O)c(F)c4)c32)n1  ENPP-1, MDA-MB-231 cells (Homo sapiens)  inhibition at 20 µM               75
 8  COc1ccc2c(ncc3ncn(Cc4ccc(S(N)(=O)=O)cc4F)c32)n1  ENPP-1, MDA-MB-231 cells (Homo sapiens)  inhibition at 20 µM               89
 9  COc1ccc2c(ncc3ncn(Cc4ccc(S(N)(=O)=O)cc4Br)c32)n1  ENPP-1, MDA-MB-231 cells (Homo sapiens)  inhibition at 20 µM               86
10  COc1ccc2c(ncc3ncn(Cc4ccc(S(N)(=O)=O)cc4C#N)c32)n1  ENPP-1, MDA-MB-231 cells (Homo sapiens)  inhibition at 20 µM               79
11  COc1ccc2c(ncc3nc(C)n(Cc4cc(F)c(S(N)(=O)=O)cc4F)c32)n1  ENPP-1, MDA-MB-231 cells (Homo sapiens)  inhibition at 20 µM               85
12  COc1ccc2c(n1)nc(C)c1nc(C)n(Cc3ccc(S(N)(=O)=O)cn3)c12  ENPP-1, MDA-MB-231 cells (Homo sapiens)  inhibition at 20 µM               78
13  COc1ccc2c(ncc3ncn([C@H](C)c4ccc(S(N)(=O)=O)cc4)c32)n1  ENPP-1, MDA-MB-231 cells (Homo sapiens)  inhibition at 20 µM               82
14  COc1ccc2c(ncc3nc(CC#N)n(Cc4ccc(S(N)(=O)=O)c(F)c4)c32)n1  ENPP-1, MDA-MB-231 cells (Homo sapiens)  inhibition at 20 µM               82
15  COc1ccc2c(ncc3nnn(Cc4ccc(S(N)(=O)=O)cn4)c32)n1  ENPP-1, MDA-MB-231 cells (Homo sapiens)  inhibition at 20 µM               83
16  COc1ccc2c(ncc3ncn(Cc4ccc(S(N)(=O)=O)c(F)c4)c32)n1  ENPP-1, MDA-MB-231 cells (Homo sapiens)  inhibition at 20 µM               80
17  COc1ccc2c(ncc3ncn([C@H](C)c4ccc(S(N)(=O)=O)cn4)c32)n1  ENPP-1, MDA-MB-231 cells (Homo sapiens)  inhibition at 20 µM               83
18  COc1ccc2c(ncc3[nH]c(=O)n(Cc4c(F)cc(P(=O)(O)O)cc4F)c32)n1  ENPP-1, MDA-MB-231 cells (Homo sapiens)  inhibition at 20 µM               86
19  COc1ccc2c(ncc3[nH]c(=O)n(Cc4c(F)cc(S(=O)(=O)NC(C)=O)cc4F)c32)n1  ENPP-1, MDA-MB-231 cells (Homo sapiens)  inhibition at 20 µM               72

====

biological target: ENPP-1, MDA-MB-231 cells (Homo sapiens, UniProt P22413); test: cell-based; details: MDA-MB-231, read-out: % Inhibition (at 20 μM)
Sequence (P22413 whole entry): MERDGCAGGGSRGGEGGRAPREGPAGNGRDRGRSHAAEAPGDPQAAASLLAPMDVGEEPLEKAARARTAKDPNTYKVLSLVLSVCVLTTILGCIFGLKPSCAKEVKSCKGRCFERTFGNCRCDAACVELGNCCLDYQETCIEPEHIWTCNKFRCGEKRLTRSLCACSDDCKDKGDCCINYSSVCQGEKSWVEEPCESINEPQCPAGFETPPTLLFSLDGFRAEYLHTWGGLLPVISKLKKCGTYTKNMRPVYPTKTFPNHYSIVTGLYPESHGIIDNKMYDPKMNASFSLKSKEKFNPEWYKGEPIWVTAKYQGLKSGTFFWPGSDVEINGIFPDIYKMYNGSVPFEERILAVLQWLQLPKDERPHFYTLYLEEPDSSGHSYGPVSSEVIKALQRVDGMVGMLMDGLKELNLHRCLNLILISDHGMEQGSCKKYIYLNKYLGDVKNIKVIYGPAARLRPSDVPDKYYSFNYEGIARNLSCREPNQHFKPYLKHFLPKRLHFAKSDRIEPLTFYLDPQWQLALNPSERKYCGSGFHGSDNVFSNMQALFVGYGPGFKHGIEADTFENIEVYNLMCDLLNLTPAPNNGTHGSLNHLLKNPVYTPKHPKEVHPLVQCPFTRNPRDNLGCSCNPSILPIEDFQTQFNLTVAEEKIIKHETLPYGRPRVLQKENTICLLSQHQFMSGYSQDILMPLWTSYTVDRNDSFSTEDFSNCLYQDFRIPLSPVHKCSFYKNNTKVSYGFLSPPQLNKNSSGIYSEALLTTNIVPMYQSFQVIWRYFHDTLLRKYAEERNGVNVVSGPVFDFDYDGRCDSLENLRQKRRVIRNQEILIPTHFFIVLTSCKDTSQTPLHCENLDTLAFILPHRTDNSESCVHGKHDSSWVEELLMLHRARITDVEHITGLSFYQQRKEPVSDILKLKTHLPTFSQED
Result type: inhibition at 20 µM (%)

> print(dat)
                            chemical.smiles          result.type  reported.result
1  COc1ccc2c(ncc3[nH]c(=O)n(Cc4ccc(CS(N)(=O)=O)cc4)c32)n1  inhibition at 20 µM               82
2  COc1ccc2c(ncc3ncn(Cc4ccc(S(N)(=O)=O)cc4C(F)(F)F)c32)n1  inhibition at 20 µM               80
3  COCCn1c(=O)n(Cc2c(F)cc(S(N)(=O)=O)cc2F)c2c3ccc(OC)nc3ncc21  inhibition at 20 µM               87
4  COc1ccc2c(ncc3nc(C4CNC4)n(Cc4ccc(S(N)(=O)=O)c(F)c4)c32)n1  inhibition at 20 µM               79
5  COc1ccc2c(ncc3[nH]c(=O)n(Cc4c(F)cc(C(=O)O)cc4F)c32)n1  inhibition at 20 µM               64
6  COc1ccc2c(ncc3c2n(Cc2c(F)cc(S(N)(=O)=O)cc2F)c(=O)n3C)n1  inhibition at 20 µM               77
7  COc1ccc2c(ncc3c2n(Cc2c(F)cc(S(N)(=O)=O)cc2F)c(=O)n3CCO)n1  inhibition at 20 µM               78
8  COc1ccc2c(ncc3[nH]c(=O)n(Cc4ccc(P(=O)(O)O)c(F)c4)c32)n1  inhibition at 20 µM               91

====

test: Pharmacokinetics in mice; type: in vivo; settings: mouse, plasma; male CD-1 mice; 1 mg/kg, iv; read-out: Vdss
# strict inequality: Vd < 3 L/kg yields met, everything else yields not met

> print(dat)
                            chemical.smiles  category.label
1  COc1ccc2c(ncc3ncn(Cc4ccc(S(N)(=O)=O)c(C(F)(F)F)c4)c32)n1         not met
2  COc1ccc2c(n1)nc(C)c1nc(C)n(Cc3ccc(S(N)(=O)=O)cn3)c12             met
3  COc1ccc2c(ncc3c2n(Cc2c(F)cc(S(N)(=O)=O)cc2F)c(=O)n3C)n1         not met
4  COc1cc2ncc3ncn(Cc4ccc(S(N)(=O)=O)cn4)c3c2cc1OC             met
5  COc1ccc2c(ncc3nnn(Cc4ccc(S(N)(=O)=O)cn4)c32)n1         not met
6  COc1ccc2c(ncc3nc(CC#N)n(Cc4ccc(S(N)(=O)=O)c(F)c4)c32)n1             met
7  COc1ccc2c(ncc3ncn(Cc4ccc(S(N)(=O)=O)nc4)c32)n1         not met
